- assay_comment: Phase 1/2 study: plasma pharmacokinetics of Compound (I) in patients (LC-MS/MS, non-compartmental analysis)
- Format: in vivo, human
- run_conditions: human, plasma, oral, 400 mg BID, 400 mg BID with 200 mg run-in, Cycle 1 Day 8, mean ± SD, n = 24; read-out: AUC0-12
parameter_measured: AUC(0-t) (ng·h/mL)
Express it in ng·h/mL; write the number only.

Param item = `CC1(N)CCN(c2cccnc2NC(=O)c2nc(-c3ncccc3C(F)(F)F)cnc2N)CC1` ; retrieve measured AUC(0-t).
24400

----------
- assay_comment: Phase 1/2 study: plasma pharmacokinetics of Compound (I) in patients (LC-MS/MS, non-compartmental analysis)
- Assay type: in vivo, human
- run_conditions: human, plasma, oral, 300 mg, 300 mg BID, Cycle 1 Day 1, mean ± SD, n = 12; read-out: Cmax
parameter_measured: Cmax (ng/mL)
Express it in ng/mL; write the number only.

Param item = `CC1(N)CCN(c2cccnc2NC(=O)c2nc(-c3ncccc3C(F)(F)F)cnc2N)CC1` ; retrieve measured Cmax.
4600
